Biological target: T1, MICB (human, UniProt Q29980 23-383)
T1 chain: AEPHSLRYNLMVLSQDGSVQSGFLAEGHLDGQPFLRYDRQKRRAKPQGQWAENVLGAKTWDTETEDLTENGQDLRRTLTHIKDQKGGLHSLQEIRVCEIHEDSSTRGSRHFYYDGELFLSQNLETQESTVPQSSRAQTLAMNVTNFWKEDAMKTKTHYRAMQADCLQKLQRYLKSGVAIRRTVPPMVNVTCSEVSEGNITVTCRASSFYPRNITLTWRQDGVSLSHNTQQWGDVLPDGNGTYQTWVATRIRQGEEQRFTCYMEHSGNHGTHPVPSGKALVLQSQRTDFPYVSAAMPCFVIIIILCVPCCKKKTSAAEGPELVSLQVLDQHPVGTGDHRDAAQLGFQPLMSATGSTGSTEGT
Assay: Carterra LSA SPR
pKd: −log10 of the molar value.
PARAMETER: pKd

• 2F7 (antibody, V domains shown) VH: QVHLKQSGAELVRPGASVKLSCKASGYTFTDYYIDWMNQRPGQGLEWIARIYPGSGNSYYNEKFKGKATLTAEKSASTAHMQLSSLTSEDSAVYFCAREGPTGVAPHWYFDVWGTGTTVTVSS VL: DIVMSQSPSSLSSYLGDRVTISCRASQDIGNYLNWYQQKPDGTVKLLIYSTSRLHSGVPSRFSGSGSGTDYSLTISNLEQEDVATYFCQQGNTLPWTFGGGTKLEIK = 8.01
